Please provide measured cytotoxicity at 70.5 h for the entries that follow.
Assay: Human HepG2 cell viability assay in 384 well format
Type: toxicity, cell-based
Design: dose 125 nL, time 70.5 hour; concentration not given beside the values
Conditions: HepG2 cells, read-out: Inhibition
Param answer (str): number followed by unit.

## Input cytotoxicity at 70.5 h for Cc1ocnc1C(=O)N1CCN(C(=O)CC(C)C)[C@@H]2CS(=O)(=O)C[C@@H]21 ?
## Output 31.4%

## Input cytotoxicity at 70.5 h for Cn1ncc(N2CCOC(CCNC(=O)N3CCCCC3)C2)cc1=O (centres undefined) ?
## Output -6.9%

## Input cytotoxicity at 70.5 h for CCc1ccc(NC(=O)c2cnc(N3CCCC3)nc2C)cc1 ?
## Output -2.19%

## Input cytotoxicity at 70.5 h for CCc1ccc(CN2C[C@@H](C)C3(CCN(CC(=O)N(C)C)C3=O)C2)o1 (some centres undefined) ?
## Output -6.86%

## Input cytotoxicity at 70.5 h for CCN(C)C(=O)c1cccc(S(=O)(=O)NCCc2csc(N)n2)c1 ?
## Output 19.2%

## Input cytotoxicity at 70.5 h for CC(=O)N[C@H]1CCO[C@@H](c2cccc(NC(=O)C(C)(C)C)c2)C1 ?
## Output -7.68%

## Input cytotoxicity at 70.5 h for O=C([C@H]1CCCO1)N1CCc2ncnc(NC3CC3)c2CC1 ?
## Output -6.76%

## Input cytotoxicity at 70.5 h for CCN1CC(COC(=O)c2ccc(N(C)C)cc2F)CC1=O (centres undefined) ?
## Output -3.33%

## Input cytotoxicity at 70.5 h for CC(C)Cc1nc(OCC(=O)O)c(C#N)c2c1CCCC2 ?
## Output -7.68%

## Input cytotoxicity at 70.5 h for CC(C)(C)c1ncc(C(=O)NCCn2ccnc2)s1 ?
## Output 24.5%

## Input cytotoxicity at 70.5 h for Cc1ncc(CN2CCC(c3nc4cc(Cl)ccc4o3)CC2)s1 ?
## Output 22.3%

## Input cytotoxicity at 70.5 h for Cc1cc(N2CCN(C3CCSCC3)CC2)n2nc(C)c(C)c2n1 ?
## Output -5.2%

## Input cytotoxicity at 70.5 h for Fc1cnc(N2CCCn3c(nnc3Cn3ccnc3)C2)nc1 ?
## Output -4.74%

## Input cytotoxicity at 70.5 h for Cc1cc(-c2cnc(N3CCNC(=O)C3)nc2-c2ccoc2C)on1 ?
## Output -6.66%

## Input cytotoxicity at 70.5 h for Cc1ccc(-c2nc(CNCC3CN(C)CCO3)co2)cc1 (centres undefined) ?
## Output -2.95%

## Input cytotoxicity at 70.5 h for Cn1cc(CN2CCCC23CCN(C(=O)c2ccsc2)CC3)cn1 ?
## Output -5.87%

## Input cytotoxicity at 70.5 h for Cc1cc(=O)[nH]cc1C(=O)N1Cc2ccccc2N(C)CC1C (centres undefined) ?
## Output 26%

## Input cytotoxicity at 70.5 h for CCC(NC(=O)C1CCN(S(C)(=O)=O)CC1)c1ccc(C)cc1 (centres undefined) ?
## Output -3.68%

## Input cytotoxicity at 70.5 h for O=C(COC[C@@]12CCC[C@@H]1CN(C1CCC1)C2)N1CCCC1 ?
## Output -9.27%

## Input cytotoxicity at 70.5 h for Cc1c(NCC(C)(C)C)cccc1C(=O)N(C)Cc1ncnn1C ?
## Output 21%

## Input cytotoxicity at 70.5 h for CC(=O)NCc1nnc2n1CCN(c1nc(C)nc3sccc13)CC2 ?
## Output -7.13%

## Input cytotoxicity at 70.5 h for CC(NC(=O)NCc1cccnc1N(C)C)c1ccc(F)cc1 (centres undefined) ?
## Output -23.2%

## Input cytotoxicity at 70.5 h for Cc1ccccc1CSCCn1nc2ccccn2c1=O ?
## Output -9.36%

## Input cytotoxicity at 70.5 h for O=C(O)c1c(-c2ccncc2)ncc2c1CCN(Cc1ccco1)C2 ?
## Output 3.95%

## Input cytotoxicity at 70.5 h for CCNC(=O)N1CC(c2nc(Cc3ccccc3)no2)C1 ?
## Output -5.59%

## Input cytotoxicity at 70.5 h for Cc1cnn(CC2CCCN2C(=O)c2c(F)cccc2Cl)c1 (centres undefined) ?
## Output 0.266%

## Input cytotoxicity at 70.5 h for Cc1cnn(CC2CCCCN2CC(=O)N(C)Cc2ccc(C)o2)c1 (centres undefined) ?
## Output -2.13%

## Input cytotoxicity at 70.5 h for CCn1nc(C)c2nnn(CC(=O)Nc3ccc(C)c(C)c3)c(=O)c21 ?
## Output -7.31%

## Input cytotoxicity at 70.5 h for O=c1nc(SCc2ccncc2)c2c(n1CCO)CCC2 ?
## Output -0.878%

## Input cytotoxicity at 70.5 h for CC(=O)Nc1nc(C(=O)N2CCCC(n3ccnc3)C2)cs1 (centres undefined) ?
## Output -0.488%

## Input cytotoxicity at 70.5 h for O=C1NCCCCC1NCc1csc(-c2ccccn2)n1 (centres undefined) ?
## Output -12.2%

## Input cytotoxicity at 70.5 h for Cc1cn(Cc2ccc(F)cc2)nc1N ?
## Output -1.4%

## Input cytotoxicity at 70.5 h for CCCc1n[nH]c(C2CN(CCCS(=O)(=O)N(C)C)CCO2)n1 (centres undefined) ?
## Output -4.5%

## Input cytotoxicity at 70.5 h for CCn1nccc1CNc1[nH]cnc2nncc1-2 ?
## Output -20.2%
